System: HepG2 cells
assay.comment: Phosphorylation assay of nucleoside to active triphosphate
Format: in vitro ADME
condition.set: 10 μM [3H] labeled compound, 24 h
Description: To determine the cellular metabolism of the compounds, HepG2 cells were obtained from the American Type Culture Collection (Rockville, Md.), and were grown in 225 cm^2 tissue culture flasks in minimal essential medium supplemented with non-essential amino acids, 1% penicillin-streptomycin. The medium was renewed every three days, and the cells were subcultured once a week. […]
recorded.endpoint: intracellular triphosphate level (pmol/million cells)
Quick reminder: number only, in pmol/million cells, skip the unit.

I'd like to know its intracellular triphosphate level. The compound in question is C[C@@]1(O)[C@H](O)[C@@H](COP(=O)(O)OP(=O)(O)OP(=O)(O)O)O[C@H]1n1ccc(=O)[nH]c1=O
6.39

Also C[C@@]1(O)[C@H](O)[C@@H](COP(=O)(O)OP(=O)(O)OP(=O)(O)O)O[C@H]1n1ccc(N)nc1=O ?
34.9

Same again, this time with C[C@@]1(O)[C@H](O)[C@@H](COP(=O)(O)OP(=O)(O)OP(=O)(O)O)O[C@H]1n1cnc2c(N)ncnc21
427

What about C[C@@]1(O)[C@H](O)[C@@H](COP(=O)(O)OP(=O)(O)OP(=O)(O)O)O[C@H]1n1cnc2c(=O)[nH]c(N)nc21 ?
0.91
